Target: Androgen Receptor (AR) (Homo sapiens, UniProt P10275, T878A)
Construct: cell based immuno-fluorescence assay using the LNCaP prostate epithelial cell line; endogenous in cells; host or cells: LNCaP clone FGC (ATCC CRL-1740)
Experiment: LNCaP Androgen Receptor Down-regulation Cell Assay (immunofluorescence end point)
Type: cell-based
Settings: LNCaP prostate carcinoma cells, compound incubation 20-22 hours, 50% reduction of the AR signal; read-out: Androgen Receptor Down-regulation Assay (a) IC50/μM
Protocol: The ability of compounds to reduce Androgen Receptor (AR) numbers was assessed in a cell based immuno-fluorescence assay using the LNCaP prostate epithelial cell line. a) LNCaP Androgen Receptor Down-regulation Cell Assay […] Immunostaining was performed at room temperature. […] Then 50 μl of PBST was added to each well and plates were covered with a black plate seal and stored at 4° C. before being read. Plates were read within six hours of completing the immunostaining. […]
Binarize DC50 at 3 µM; below is fulfilled, at or above is not fulfilled.

// below: answered molecules
                              sample_smiles   answer_label
0  Cn1nccc1CCOc1ccc(N2CCN(c3ccc4nnc(C(F)F)n4n3)CC2)cc1      fulfilled
1  CNC(=O)c1cccc(OC2CCN(c3ccc4nnc(C(F)(F)F)n4n3)CC2)c1  not fulfilled
2  FC(F)(F)c1nnc2ccc(N3CCC(Oc4cccnc4)CC3)nn12  not fulfilled

Data request: Hello, is DC50 of the following molecule strictly smaller than 3 µM? Fc1cccc(OC2CCN(c3ccc4nnc(C(F)(F)F)n4n3)CC2)c1
Data returned: fulfilled

Data request: Hello, is DC50 of the following molecule strictly smaller than 3 µM? COc1ncccc1CN1CCN(c2ccc3nnc(C(F)(F)F)n3n2)CC1
Data returned: not fulfilled

* * *

Recorded DC50, one value per entry.
Target: Androgen Receptor (AR) (Homo sapiens, UniProt P10275, T878A)
Construct: cell based immuno-fluorescence assay using the LNCaP prostate epithelial cell line; endogenous in cells; host or cells: LNCaP clone FGC (ATCC CRL-1740)
Test: LNCaP Androgen Receptor Down-regulation Cell Assay (immunofluorescence end point)
Type: cell-based
Settings: LNCaP prostate carcinoma cells, compound incubation 20-22 hours, 50% reduction of the AR signal; read-out: Androgen Receptor Down-regulation Assay (a) IC50/μM
Write it as a number; the unit µM goes unstated.

Here is how some molecules turned out for DC50.
In [3]: df
Out[3]:
                                   molecule  numeric_readout
0  CN1CCN(CC(=O)Nc2ccc(C3CCN(c4ccc5nnc(C(F)(F)F)n5n4)CC3)cc2)CC1 [Example 708]              6.2
1  N#Cc1cccc(CN2CCN(c3ccc4nnc(C(F)(F)F)n4c3)CC2)c1 [Example 188]              2.2
2  FC(F)(F)c1nnc2ccc(N3CCN(Cc4cccc(Oc5ccc(Cl)cc5)c4)CC3)nn12 [Example 119]              2.2
3  N#Cc1cc(OC2CCN(c3ccc4nnc(C(F)(F)F)n4n3)CC2)ccn1 [Example 449]              4.8

Data request: // lookup DC50 for FC(F)(F)c1ccc(CN2CC3CN(c4ccc5nnc(C(F)(F)F)n5n4)CC3C2)cc1 (centres unmarked) [Example 199]
Data returned: 1.9

Data request: // lookup DC50 for Cc1cccc(N2CCN(c3ccc4nnc(C(F)(F)F)n4n3)CC2)c1 [Example 36]
Data returned: 0.99

Data request: // lookup DC50 for CN(CCN1CCOCC1)C(=O)c1ccc(C2CCN(c3ccc4nnc(C(F)(F)F)n4n3)CC2)cc1 [Example 754]
Data returned: 2.5

Data request: // lookup DC50 for Fc1ccc(C(F)F)c(CN2CCN(c3ccc4nnc(C(F)(F)F)n4n3)CC2)c1 [Example 779]
Data returned: 0.54

* * *

Target: Androgen Receptor (AR) (Homo sapiens, UniProt P10275, T878A)
Construct: cell based immuno-fluorescence assay using the LNCaP prostate epithelial cell line; endogenous in cells; host or cells: LNCaP clone FGC (ATCC CRL-1740)
Test: LNCaP Androgen Receptor Down-regulation Cell Assay (immunofluorescence end point)
Assay type: cell-based
Conditions: LNCaP prostate carcinoma cells, compound incubation 20-22 hours, 50% reduction of the AR signal; read-out: Androgen Receptor Down-regulation Assay (a) IC50/μM
Recorded metric: DC50

Here is how some compounds turned out for DC50.
>>> df
                                   compound  result
0  FC(F)(F)c1nnc2ccc(N3CC[C@@H](Oc4cccnc4)C3)nn12    5 µM
1  Fc1cc(Cl)cc(CN2CCN(c3ccc4nnc(C(F)F)n4n3)CC2)c1  6.8 µM
2  CN1CCN(CCNC(=O)c2ccc(C3CCN(c4ccc5nnc(C(F)(F)F)n5n4)CC3)cc2)CC1  1.4 µM
3  FC(F)c1nnc2ccc(N3CCN(Cc4c[nH]c5ccc(Cl)cc45)CC3)nn12    2 µM
4  CN(C)CCCOc1ccc(CN2CCN(c3ccc4nnc(C(F)(F)F)n4n3)CC2)cc1  4.7 µM

Data request: Hello, I am looking for reported DC50 with Androgen Receptor (AR) (Homo sapiens, UniProt P10275, T878A) for FC(F)(F)c1nnc2ccc(N3CC4CN(Cc5ccccn5)CC4C3)nn12 (centres unmarked) . Could you help?
Data returned: 8.4 µM

Data request: Hello, I am looking for reported DC50 with Androgen Receptor (AR) (Homo sapiens, UniProt P10275, T878A) for FC(F)c1nnc2ccc(N3CCN(Cc4c(Cl)[nH]c5ccccc45)CC3)nn12 . Could you help?
Data returned: > 9.7 µM

Data request: Hello, I am looking for reported DC50 with Androgen Receptor (AR) (Homo sapiens, UniProt P10275, T878A) for FC(F)(F)c1nnc2ccc(N3CCC(Oc4ccncn4)CC3)nn12 . Could you help?
Data returned: 4.5 µM

* * *

Molecular target: Androgen Receptor (AR) (Homo sapiens, UniProt P10275, T878A)
Construct: cell based immuno-fluorescence assay using the LNCaP prostate epithelial cell line; endogenous in cells; host or cells: LNCaP clone FGC (ATCC CRL-1740)
Sequence (P10275 1-920 T878A): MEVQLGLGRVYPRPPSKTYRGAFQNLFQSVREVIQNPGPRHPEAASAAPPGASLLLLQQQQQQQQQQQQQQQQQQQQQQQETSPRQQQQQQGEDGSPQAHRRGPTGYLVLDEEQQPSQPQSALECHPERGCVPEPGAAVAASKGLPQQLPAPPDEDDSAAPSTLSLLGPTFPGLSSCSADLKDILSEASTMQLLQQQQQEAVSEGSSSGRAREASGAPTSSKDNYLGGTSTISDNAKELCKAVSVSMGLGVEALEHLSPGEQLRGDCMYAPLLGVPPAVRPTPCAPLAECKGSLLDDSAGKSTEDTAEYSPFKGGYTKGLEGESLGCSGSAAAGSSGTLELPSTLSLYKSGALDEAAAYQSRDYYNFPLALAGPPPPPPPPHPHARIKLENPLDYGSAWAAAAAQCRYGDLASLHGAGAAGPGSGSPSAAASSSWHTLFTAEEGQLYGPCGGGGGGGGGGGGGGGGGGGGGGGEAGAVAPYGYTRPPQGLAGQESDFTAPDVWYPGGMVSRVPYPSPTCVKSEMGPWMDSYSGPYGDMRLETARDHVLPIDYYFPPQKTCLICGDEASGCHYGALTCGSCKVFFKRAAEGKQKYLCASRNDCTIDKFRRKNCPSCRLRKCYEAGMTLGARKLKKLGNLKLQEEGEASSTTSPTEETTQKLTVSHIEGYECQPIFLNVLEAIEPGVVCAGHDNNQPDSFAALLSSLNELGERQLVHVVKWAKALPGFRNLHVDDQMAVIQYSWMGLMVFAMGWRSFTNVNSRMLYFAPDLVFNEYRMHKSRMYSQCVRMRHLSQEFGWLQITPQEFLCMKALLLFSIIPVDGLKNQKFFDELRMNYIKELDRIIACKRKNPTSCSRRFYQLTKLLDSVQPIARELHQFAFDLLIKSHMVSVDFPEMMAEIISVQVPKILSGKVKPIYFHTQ
Experiment: LNCaP Androgen Receptor Down-regulation Cell Assay (immunofluorescence end point)
Type: cell-based
Conditions: LNCaP prostate carcinoma cells, compound incubation 20-22 hours, 50% reduction of the AR signal; read-out: Androgen Receptor Down-regulation Assay (a) IC50/μM
Description: The ability of compounds to reduce Androgen Receptor (AR) numbers was assessed in a cell based immuno-fluorescence assay using the LNCaP prostate epithelial cell line. a) LNCaP Androgen Receptor Down-regulation Cell Assay […] Immunostaining was performed at room temperature. […] Then 50 μl of PBST was added to each well and plates were covered with a black plate seal and stored at 4° C. before being read. Plates were read within six hours of completing the immunostaining. […]
Recorded metric: DC50 (µM)
Write it as a number; the unit µM goes unstated.

Here is how some molecules turned out for DC50.
>>> print(df.to_string())
                                   molecule                            assayed_system  recorded_metric  unit_tag  numeric_readout
0  Cn1nccc1COc1ccc(C2CCN(c3ccc4nnc(C(F)(F)F)n4n3)CC2)cc1  Androgen Receptor (AR) (Homo sapiens, UniProt P10275, T878A)             DC50        µM              0.4
1  CC1CN(c2ccc3nnc(C(F)(F)F)n3n2)C(C)CN1Cc1cc(F)cc(F)c1 (centres unmarked)  Androgen Receptor (AR) (Homo sapiens, UniProt P10275, T878A)             DC50        µM              3.6
2  FC(F)c1nnc2ccc(N3CCN(Cc4c[nH]c5ccccc45)CC3)nn12  Androgen Receptor (AR) (Homo sapiens, UniProt P10275, T878A)             DC50        µM              3.8
3  FC(F)(F)c1nnc2ccc(N3CCN(Cc4n[nH]c5ccccc45)CC3)nn12  Androgen Receptor (AR) (Homo sapiens, UniProt P10275, T878A)             DC50        µM              2.7
4  Fc1cc(CN2CCN(c3ccc4nnc(C(F)F)n4n3)CC2)cc(C(F)F)c1  Androgen Receptor (AR) (Homo sapiens, UniProt P10275, T878A)             DC50        µM              2.2
5  FC(F)(F)c1nnc2ccc(N3CCN(Cc4cc[nH]c4)CC3)nn12  Androgen Receptor (AR) (Homo sapiens, UniProt P10275, T878A)             DC50        µM              9.5
6  CCc1ccc(CN2CCN(c3ccc4nnc(C(F)(F)F)n4n3)CC2)cc1  Androgen Receptor (AR) (Homo sapiens, UniProt P10275, T878A)             DC50        µM              1.4

Data request: // lookup DC50 for N#Cc1ccc2[nH]cc(C3CCN(c4ccc5nnc(C(F)(F)F)n5n4)CC3)c2c1
Data returned: 0.35
